method summary: yeast display, Sf9 membrane polyspecificity reagent, FACS + sequencing; frameworks hold sequencing errors

[
  {
    "polymer sequence": "QVQLVESGGGLVQAGGSLRLICAASGSIFDWNAMGWYRQAPGKERELVATISWDGGSTYYADSVKGRFTISRDNAKNTVYLQMNSLKPEDTAVYYCATVFTGKPAYYARTKYDYWGQGTQVNVSS",
    "polyreactivity (PSR sort gate)": "low polyreactivity"
  },
  {
    "polymer sequence": "QVQLVESGGGLVQAGGSLRLSCAASGSTFAWYTMGWYRQAPGKERELVARISGSVGSTYYADSVKGRFTISRDNAKNTVYLQMNSLKPEDTAVYYCAAVYDEDQYDYWGQGTQVTVSS",
    "polyreactivity (PSR sort gate)": "low polyreactivity"
  }
]

---

method summary: yeast display, Sf9 membrane polyspecificity reagent, FACS + sequencing; frameworks hold sequencing errors

[
  {
    "polymer sequence": "QVQLVESGGGLVQAGGSLRLSCAASGRIFPHYAMGWYRQAPGKERELVAAISSGGRTNYADSVKGRFTISRDNAKNTVYLQMNSLKPEDTAVYYCARRYPGGYYWGQGTQVTVSS",
    "polyreactivity (PSR sort gate)": "high polyreactivity"
  },
  {
    "polymer sequence": "QGQLVESGGGLVQAGGSLRLSCAASVRTSVINAMGWYRQAPGKERELVAAITKRGGSTYYADSVKGRFTISRDIAKNTVYLQMNSLKPEDTEVYYCAKYPIYIQYDSWGQGTQVTVSS",
    "polyreactivity (PSR sort gate)": "high polyreactivity"
  },
  {
    "polymer sequence": "QVQLVESGGGLVQAGGSLRLSCAASGFTFEIYAMGWYSQAPGKVRELVAAISKSGGSTYYADSVKGRFTISRDNAKKRVYLQMNSLKPEDSSVYSCAARYKALYDYWGQGTQVTVSS",
    "polyreactivity (PSR sort gate)": "high polyreactivity"
  },
  {
    "polymer sequence": "QVQLVESGGGLVQAGGSLRLSCAASGSTFYRYAMGGYRQAPGKERELVASITRGGGRTHYADSVKGRFTISRDNAKNTVYLQMNSLKPEDTAVYYCAAVTPVSYRLYGYWGQGTQVTVSS",
    "polyreactivity (PSR sort gate)": "high polyreactivity"
  }
]

---

method summary: yeast display, Sf9 membrane polyspecificity reagent, FACS + sequencing; frameworks hold sequencing errors
measured endpoint: polyreactivity (PSR sort gate)

// worked examples, polyreactivity (PSR sort gate) included
[
  {
    "polymer sequence": "QVQLVESGGGLVQAGGSLRLSCAASGFTFSRNVMGWYRQAPGKERELVADITLSGASTYYADSVKGRFTISRDNAKNTVYLQMNSLKPEDTADYYCAADPYHWRWGWRHDYWGQGTQVTVSS",
    "observed measurement": "low polyreactivity"
  },
  {
    "polymer sequence": "QVQLVESGGGLVQAGGSLRLSCAASGIIFYDNAMGWYRQAPGKERELVAAISWGGGDTYYADSVKGRFTISRDNAKNTVYLQMNSLKPEDTAVYYCAAGNLPDYDYWGQGTQVTVSS",
    "observed measurement": "low polyreactivity"
  },
  {
    "polymer sequence": "QVQLVESGGGLVQAGGSLRLSCAASGSIFRKNAMGWYRQAPGKETELVAAITGSGRTTYADSVKGRFTISRDNAKNTVYLQMNSLKPEDTAVYYCAADVNYYQHRLYYWGQGTQVTVSS",
    "observed measurement": "low polyreactivity"
  },
  {
    "polymer sequence": "QVQLVESGGGLVQAGGSLRLSCAASGSTFYFYAMGWYRQAPGKERELVAAITGSGGSTYYADSVKGRFTISRDNAKNTVYLQMNSLKPEDTAVYYCAARFSYWKTKRAYDWGQGTQVTVSS",
    "observed measurement": "high polyreactivity"
  }
]

Next sequence, polyreactivity (PSR sort gate) to be filled in.
What value of polyreactivity (PSR sort gate) has been reported for the following sequence? `QVQLVESGGGLVQAGGSRRLSCAASGRIFRIYAMGWYRQAPGKERELVAAITWSGGSTYYADSVKGRFPISRDNAKNTVYLQMNSLKPEDTAVYYGAAKARSNKYNYWGQGTQVTVSS`
high polyreactivity

---

method summary: yeast display, Sf9 membrane polyspecificity reagent, FACS + sequencing; frameworks hold sequencing errors
measured endpoint: polyreactivity (PSR sort gate)

// worked examples, polyreactivity (PSR sort gate) included
[
  {
    "polymer sequence": "QVQLVDSGGGLVQAGGSLRLSCAPSGSTFGYNAMGWYRQAPGKERELVAAITWSGGSTYYADSVKGRFTISRDNAKNTVYLQMNSLKPEDTAVYYCAADDWYNSKWHYYSWGQGTQLTVSS",
    "polyreactivity (PSR sort gate)": "low polyreactivity"
  },
  {
    "polymer sequence": "QVQLVESGGGVVQAGGSLRLSCAASGFTFAYYATGWYRQAPGKERELVAAISRSGGSTYYADSVKGRFTISRDNAKNTVYLHMNSLKPEDTAVYYCARDQRKLGADFDSWGQRTQVTVSS",
    "polyreactivity (PSR sort gate)": "high polyreactivity"
  },
  {
    "polymer sequence": "QVQLVESGGGLVQAGGSLRLSCAASGSIFFSYVMGWYRQAPGKERELVADITYSGGSTFYADSVKGRFTISRDNAKNTVYLQMNSLKPEDTAVYYCAATWYSWGSEFDYWGQGTQVTVSS",
    "polyreactivity (PSR sort gate)": "high polyreactivity"
  },
  {
    "polymer sequence": "QDQLVESGGGLVQAGGSLRLSCAASGRTYGSYAMGWYRQAPGQEMELVAAISRSDGSTYYADSVKGRFTISRDNAKNTVYLQMNSLKPEDTAVYYCAAKRWYVSYDYDYWGQGTQVTVSS",
    "polyreactivity (PSR sort gate)": "high polyreactivity"
  },
  {
    "polymer sequence": "QVQLVESGGGLVQAGGSLRLSCAASGRIFRPYAMGWYRQAPGKERELVATITGSGGTTYYADSVKGRFTISRDNAKNSVYFQMNSLKPEDTAVYYCNVDPRSDIIPMDYWGQGTQVTVSS",
    "polyreactivity (PSR sort gate)": "low polyreactivity"
  },
  {
    "polymer sequence": "QVQLVESGGGLVQAGGSLRLSCAASGQIFFVYAMGRYRQAPGKESELVAAISFSAGRTYYADSVKGRFTISRDNAKNTVYLQMNSLKPEDTAVYYCNALRQDTGHYPYDYWGQGTQVTVSS",
    "polyreactivity (PSR sort gate)": "low polyreactivity"
  },
  {
    "polymer sequence": "QVQLVESGGGLVQAGGSLRLSCAASGFTININDMRGYRQAPGIDTDLVAALSWNVGNRYYADSVKGRFTISRDNAKNTVYLQMKSLKPEDTAVYYCAADRYIRWVEFDYWGQGTQVTVSS",
    "polyreactivity (PSR sort gate)": "low polyreactivity"
  },
  {
    "polymer sequence": "QVQLVESGGCLVQAGGSLRLSCAASGSTFWPYAMGWYRQAPGKERELVAAITSSGGSTYYADSVKGRFTISRDNAKNTVYLQMNSLKPEDTEVYYCAADWSNLGAYDYWGQGTQVTVSS",
    "polyreactivity (PSR sort gate)": "low polyreactivity"
  }
]

List the reported polyreactivity (PSR sort gate) of each sequence below.
1. QVQLVESGGGLVQAGGSLRLSCAASGFNFYGYVMGWYRQAPGKERELVAVISRSGDRTSYADSVKGRFTISRDTAKNTVYLQMNSLKPEDTAVYYCAAESGWGAAGEELDYWGQGTQVTVSS
2. QVQLVESGGGLVQAGGSLRLSCAASGSTFVLDDMGWYRQAPGKERELDAAISYSGDSTNYAASVKGRFTISRDNAKNTVYLQMNSLKPEDTAVYYCNARQRTYYRTHRIRHKGNGYWGQGTQVTVSS

1: high polyreactivity; 2: low polyreactivity

---

method summary: yeast display, Sf9 membrane polyspecificity reagent, FACS + sequencing; frameworks hold sequencing errors
measured endpoint: polyreactivity (PSR sort gate)

[
  {
    "polymer sequence": "QVQLVESGGGLVQAGGSLRLSCAASGFIFRRYTMGWYRQAPGKERELVAAISSRGGSTYYADSVKGRFTISRDNAKNTVYLQMNSLKPEDTAVYYCNAGLGVRRRYDYWGQGTQVTVSS",
    "measured endpoint": "polyreactivity (PSR sort gate)",
    "observed measurement": "high polyreactivity"
  },
  {
    "polymer sequence": "QVQLVESGGGLVQAGGSLSLSCAASGFTFGTNAMGWYRQAPGKERELVAAISSRGGSTYYADSVKGRFTISRDNAKNTVYLEMNSLKPEDTAVYYCARRVAGRQHEYGYWGLGTQVTVSS",
    "measured endpoint": "polyreactivity (PSR sort gate)",
    "observed measurement": "high polyreactivity"
  }
]

Sourced from the nanobody polyreactivity screen of Harvey et al. (2022)
